- Tgt: USP8 Rhod domain (Homo sapiens)
- Construct: USP8 Rhod (174–317) (UniProt: P40818); GST (cleaved yes); made in house; host or cells: Escherichia coli BL21-Gold (DE3)
- Sequence (P40818 174-317): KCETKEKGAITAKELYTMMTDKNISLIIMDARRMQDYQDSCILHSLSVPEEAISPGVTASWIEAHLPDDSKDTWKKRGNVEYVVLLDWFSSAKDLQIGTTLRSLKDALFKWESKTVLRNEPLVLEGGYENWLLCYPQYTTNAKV
- Method: ProP-PD selection against USP8 Rhod domain
- Assay type: binding
- Setup conditions: Total NGS counts
Kindly supply the reported max_counts values for the records listed here.
Hey, just send me the number, nothing else.

Input line: Which max_counts is listed for QPNHGLALWEAKMKQL [TET3 1701-1716, Methylcytosine dioxygenase TET3 peptide, overlapping] ?
Output line: 7

Input line: And what about the sequence HIWHYDEEYLPDASKP [TTBK2, Tau-tubulin kinase 2 peptide 503-518] ?
Output line: 76

Input line: And what about the sequence YDTLIIRDYTQSSSSL [GRM5, Metabotropic glutamate receptor 5 peptide 1197-1212] ?
Output line: 23

Input line: And what about the sequence LMNFLGDSNPFNLLRM [BCL11B, B-cell lymphoma/leukemia 11B peptide 279-294] ?
Output line: 421

###

Kindly supply the reported Percentage (%) normalized to highest intensity and corrected for background values for the records listed here.
- Tgt: USP8 Rhod domain (Homo sapiens, UniProt P40818)
- Construct: USP8 Rhod (174–317) (UniProt: P40818); GST (cleaved yes); made in house; host or cells: Escherichia coli BL21-Gold (DE3)
- Sequence (P40818 174-317): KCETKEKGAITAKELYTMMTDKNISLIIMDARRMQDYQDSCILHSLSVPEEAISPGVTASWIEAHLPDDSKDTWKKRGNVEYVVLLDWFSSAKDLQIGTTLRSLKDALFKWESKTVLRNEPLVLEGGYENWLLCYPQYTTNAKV
- Method: SPOT array of predicted peptides from known interactors, USP8 Rhod domain
- Type: binding
- Setup conditions: Rhod-Peptide screening, SPOT array of predicted peptides; KIAA1614 positive control = 100
- Description: The results therefore support that the USP8 Rhod domain binds to two distinct types of motifs (Fig. 4A, B). We used the motifs to scan for matching motifs in previously reported interactors using the SLiMSearch algorithm (Supplementary Table S8 A). As there was no clear match for the TET3-type motif except from only one hit, we focused on the KIAA1614-type motif. […] Both TP63 and USP21 are previously reported USP8 substrates, and the interactions may potentially contribute to substrate targeting. […]
Your reply should be a number followed by the unit it is expressed in.

Input line: Which Percentage (%) normalized to highest intensity and corrected for background is listed for PVYSRPTVLMRAPPA ?
Output line: 4.31%

Input line: And what about the sequence SPEKSSPQALVPNG ?
Output line: 1%

Input line: And what about the sequence SWAAGPGSLLAWLIL ?
Output line: 1.45%

Input line: And what about the sequence SQLPSSPAQLSCRS ?
Output line: 9%

Input line: And what about the sequence AQPPAPGVLMAQPLT ?
Output line: -1.21%

Input line: And what about the sequence GVSCYRGLTGFGSRS ?
Output line: 52%

Input line: And what about the sequence TASSLPRKLLPWEEG ?
Output line: -1.1%

Input line: And what about the sequence PKPPRPASLLRHAPH ?
Output line: 5%

Input line: And what about the sequence AQPPTPGVLMVHPSA ?
Output line: -1.3%

Input line: And what about the sequence TRKFSSPPPLSITK ?
Output line: 6%

Input line: And what about the sequence DPVESRGLPGPEDDK ?
Output line: -0.521%

Input line: And what about the sequence AKPPGPGVLMIHPPG ?
Output line: -1.54%

Input line: And what about the sequence GPSTSRILSGWEGPS ?
Output line: -0.117%

Input line: And what about the sequence HPNTPRGLSGWEGPS ?
Output line: 2.19%

Input line: And what about the sequence SCISEWEQKIPTYN ?
Output line: 6%

Input line: And what about the sequence SPARSSPELLPSGV ?
Output line: 1.56%

Input line: And what about the sequence GKPPTPGVLMVHPPP ?
Output line: -1.22%

Input line: And what about the sequence PGPPYPPQLMTPSKL ?
Output line: -0.836%

###

Kindly supply the reported Confidence values for the records listed here.
- System: USP8 MIT domain
- Method: Proteomic peptide-phage display (ProP-PD) selection against USP8 MIT domain
- Assay type: binding, human
- Parameters: scale not given here
- Setup conditions: calculated based on four metrics: overlapping peptides, replicated peptides, motif match, peptide counts
Hey, just send me the number, nothing else.

Input line: Which Confidence is listed for SQKELESYMMRAQQLL [SYNE2_853 − 868, Nesprin-2 peptide] ?
Output line: 2

Input line: And what about the sequence SEVSDIESRIAALRAA [MLPH481 − 496, melanophilin peptide] ?
Output line: 3

Input line: And what about the sequence VLSKRKGGNVGKSKRD [ERVK-21, Endogenous retrovirus group K member 21 Env polyprotein peptide 676-691] ?
Output line: 2

Input line: And what about the sequence HDSLDSRIEMLLKEQR [SETD1B 496-511, Histone-lysine N-methyltransferase SETD1B peptide, overlapping] ?
Output line: 2

###

- System: USP8 MIT domain
- Method: Proteomic peptide-phage display (ProP-PD) selection against USP8 MIT domain
- Format: binding, human
- Setup conditions: Total NGS counts
- Protocol: We explored the peptide-binding of the USP8 MIT domain by using the purified GST-tagged MIT domain as bait in proteomic peptide-phage display (ProP-PD) selections and a library designed to display the predicted unstructured regions of the human proteome. The peptide-coding regions of the binding-enriched phage pools were analysed by next-generation sequencing (NGS). After filtering for high confidence ligands, ten ligands remained (Fig. 1B; Supplementary Table S1). […]
Kindly supply the reported max_counts values for the records listed here.
Hey, just send me the number, nothing else.

Input line: Which max_counts is listed for QAIYRHPLFPLLALLF [PKNOX1_56 − 71, Homeobox protein PKNOX1 peptide] ?
Output line: 107

Input line: And what about the sequence HDSLDSRIEMLLKEQR [SETD1B 496-511, Histone-lysine N-methyltransferase SETD1B peptide, overlapping] ?
Output line: 7

Input line: And what about the sequence TKTLEERISKLISDNE [HIVEP1_741 − 756, Zinc finger protein 40 peptide] ?
Output line: 19

Input line: And what about the sequence HRRVRTEGKESSSASR [CACNA1E, Voltage-dependent R-type calcium channel subunit alpha-1E peptide 923-938] ?
Output line: 96

Input line: And what about the sequence PEKPHDSLDSRIEMLL [SETD1B492 − 507, Histone-lysine N-methyltransferase SETD1B peptide] ?
Output line: 70

Input line: And what about the sequence YVDLDAFLLEHGLPPS [DBP116 − 131] ?
Output line: 858

Input line: And what about the sequence MDDDYEAYHSLFLSLL [EFCAB12_1 − 16] ?
Output line: 3851

###

- System: USP8 MIT domain
- Method: Proteomic peptide-phage display (ProP-PD) selection against USP8 MIT domain
- Assay type: binding, human
- Setup conditions: fraction of NGS counts for a selection
Measured parameter: Counts
Hey, just send me the number, nothing else.

Input line: Which Counts is listed for TKTLEERISKLISDNE [HIVEP1_741 − 756, Zinc finger protein 40 peptide] ?
Output line: 0.001178

Input line: And what about the sequence SEVSDIESRIAALRAA [MLPH481 − 496, melanophilin peptide] ?
Output line: 0.000511

Input line: And what about the sequence HRRVRTEGKESSSASR [CACNA1E, Voltage-dependent R-type calcium channel subunit alpha-1E peptide 923-938] ?
Output line: 0.001177

Input line: And what about the sequence MDDDYEAYHSLFLSLL [EFCAB12_1 − 16] ?
Output line: 0.08013

Input line: And what about the sequence QAIYRHPLFPLLALLF [PKNOX1_56 − 71, Homeobox protein PKNOX1 peptide] ?
Output line: 0.001294

###

- Test system: USP8 MIT domain
- Method: SPOT array of predicted peptides from known interactors, USP8 MIT domain
- Type: binding, human
- Setup conditions: SPOT array, GST-tagged MIT 100 µM, overnight 4 °C, chemiluminescence; highest intensity = DNAJB6
Kindly supply the reported Percentage (%) normalized to highest intensity and corrected for background values for the records listed here.
Could you give me the number in %? Just the number is fine.

Input line: Which Percentage (%) normalized to highest intensity and corrected for background is listed for QAAIALSLLESPKI [USP28, Ubiquitin carboxyl-terminal hydrolase 28 peptide] ?
Output line: 1.29

Input line: And what about the sequence PPSSSLELLASLTP [PTPN23, Tyrosine-protein phosphatase non-receptor type 23 peptide] ?
Output line: -7

Input line: And what about the sequence NKTLEYKIEILEKT [KIF23, Kinesin-like protein KIF23 peptide] ?
Output line: 7

Input line: And what about the sequence KEPDALTLLAPAAG [HIF1A, Hypoxia-inducible factor 1-alpha peptide] ?
Output line: -0.189

Input line: And what about the sequence DKEIDLELLQDLME [BIRC6, Baculoviral IAP repeat-containing protein 6 peptide] ?
Output line: 12

Input line: And what about the sequence RFVVALVLLNVAAA [TGOLN2, Trans-Golgi network integral membrane protein 2 peptide] ?
Output line: -4.72

Input line: And what about the sequence PFEDFFGNRRGPR [DNAJB6_118 − 130, DnaJ homolog subfamily B member 6 peptide] ?
Output line: 100

Input line: And what about the sequence APPSLLLLLLAQLV [FZD5, Frizzled-5 peptide] ?
Output line: 24
